# target entity: α3β4 nAChR (Rattus norvegicus, UniProt P04757+P12392)
# Sequence (P04757 26-499): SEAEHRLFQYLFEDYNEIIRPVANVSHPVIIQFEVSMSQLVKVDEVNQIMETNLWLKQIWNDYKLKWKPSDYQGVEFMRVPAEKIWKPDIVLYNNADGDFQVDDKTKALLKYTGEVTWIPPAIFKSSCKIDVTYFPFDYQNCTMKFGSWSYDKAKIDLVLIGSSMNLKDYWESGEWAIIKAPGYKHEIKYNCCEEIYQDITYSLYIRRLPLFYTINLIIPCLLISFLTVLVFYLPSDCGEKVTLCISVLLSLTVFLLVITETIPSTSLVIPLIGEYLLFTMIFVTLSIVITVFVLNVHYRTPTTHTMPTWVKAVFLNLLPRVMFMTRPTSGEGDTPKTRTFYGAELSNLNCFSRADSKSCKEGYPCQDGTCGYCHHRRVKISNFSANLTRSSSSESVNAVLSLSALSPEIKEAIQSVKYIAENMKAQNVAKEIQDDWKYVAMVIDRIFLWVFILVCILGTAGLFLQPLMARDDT
# Sequence (P12392 21-495): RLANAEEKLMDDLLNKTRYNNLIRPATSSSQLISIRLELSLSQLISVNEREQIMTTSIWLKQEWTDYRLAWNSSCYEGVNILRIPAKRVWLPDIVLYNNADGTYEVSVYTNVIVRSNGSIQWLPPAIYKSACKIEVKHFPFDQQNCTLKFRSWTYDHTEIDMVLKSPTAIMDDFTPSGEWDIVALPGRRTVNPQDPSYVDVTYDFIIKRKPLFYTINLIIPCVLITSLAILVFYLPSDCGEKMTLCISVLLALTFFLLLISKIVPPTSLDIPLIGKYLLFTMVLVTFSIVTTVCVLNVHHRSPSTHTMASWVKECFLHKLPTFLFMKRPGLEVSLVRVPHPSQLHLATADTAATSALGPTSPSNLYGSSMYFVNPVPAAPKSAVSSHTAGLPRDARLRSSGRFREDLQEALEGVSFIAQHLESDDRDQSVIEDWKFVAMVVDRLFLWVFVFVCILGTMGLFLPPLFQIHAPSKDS
# test description: biochemical
# Type: binding
# Design: host or cells: HEK293 (KXα3β4R2)
# experimental conditions: log K chromatographic equilibrium constant, α3β4 nAChR, NLC
value kind: Kd (µM)
Quick note: give the figure in µM, leave out the unit.

// recorded Kd for O=C(O)c1ccc([N+](=O)[O-])cc1[N+](=O)[O-] : 1.35

###

# target entity: α3β4 nAChR (Rattus norvegicus, UniProt P04757+P12392)
# test description: Nicotine-stimulated 86Rb+ efflux assay, KXα3β4R2 cell line
# Format: cell-based
# Parameters: host or cells: HEK293 (KXα3β4R2)
# experimental conditions: IC50, nicotine-stimulated 86Rb+ efflux, cell line KXα3β4R2
Reported IC50 is given for each of the following compounds.
Output spec: scalar in µM, unitless text.

compound | IC50 [µM]
COc1ccc(CCNCCCC(C#N)(c2ccc(OC)c(OC)c2)C(C)C)cc1OC (centres unmarked) | 2.6

Consider now this further compound.
IC50 reading for CCOC(=O)C1=C(COCCN)NC(C)=C(C(=O)OC)C1c1ccccc1Cl (centres unmarked) : 5.8

Values were extracted from patent US7749984B2.
